# Experimental target: human C5 (human, UniProt P01031 19-1676)
# Assay comment: cell-based or functional assay
Experimental endpoint: IC50, inhibition of CDC of Daudi cells, 1.66% human serum

Some entries whose results are on file:
H4H12171P (antibody, human IgG4, V domains shown, H4H: human IgG4 Fc with S108P hinge mutation) VH: EVQLVESGGGVVRPGGSLRLSCAASGFTFDEYGMTWVRQVPGKGLEWVSGITWNGGFTDYTDSVKGRFTSSRDNAKNSLYLQMNSLRAEDTALYYCARDGYSSSWGAYDIWGQGTMVTVSS VL: DIQMTQSPSSLSASVGDRVTITCRASQSISTYLNWYQQKPGKAPKLLIYAASSLQSGVPLRFSGSGSGTDFTLTISSLQPEDFASYFCQQSYSTPYTFGQGTKLEIK
1.9 nM
H4H11686N (antibody, human IgG4, V domains shown, tested with H4H prefix (human IgG4 Fc with S108P hinge mutation); also called H2M11686N) VH: QVQLVESGGGLVKPGGSLRLSCAASGFTFSDYYMSWIRQAPGKGLEWVSYISSSGNTIKYADSMKGRFTISRDNAKKSLFVEMNSLRAEDTAVYYCARYKSSSDYFDHWGQGTLVTVSS VL: EIVLTQSPATLSLSPGERATLSCRASQSVRSYLAWYQQKPGQAPRLLIYDASNRATAIPARFSGSGSGTDFTLTISSLEPEDLAVYYCQQSGNWPLTFGGGTKVEIK
1.5 nM

Then this binder:
Data request: Find the measured IC50, inhibition of CDC of Daudi cells, 1.66% human serum of H4H11683N (antibody, human IgG4, V domains shown, tested with H4H prefix (human IgG4 Fc with S108P hinge mutation); variable regions follow the numerical identifier; also called H2M11683N) VH: QVQLVESGGGVVQPGRSLRLSCVASGFTFSSYGIHWVRQAPGKGLEWVAVIWDDGNNINYSDSVKGRFIISRDNSRKTVYLQMNSLRGEDTAVYYCARDAPIAPVPDYWGQGTLVTVSS VL: DIQMTQSPSTLSASVGDRVTITCRASQSISSWLAWYQQKPGKAPKLLIYKASSLDTGVPSRFSGSGSGTEFTLTISSLQPDDFATYYCQQYNTYSYTFGLGTKLEIK and report it.
Data returned: 1.2 nM
